Test: growth inhibition of uninfected mammalian cells (D98)
Format: cell-based
Conditions: three days exposure, D-98 cells (human), read-out: Cell Toxicity (% of control at 100µm) D-98 Cells
Counter-ions that a name gives are not always drawn.
observed property: activity at 72 h, 100 µM (%)

• CC(C)[C@H](N)C(=O)OCCOCn1cnc2c(=O)[nH]c(N)nc21 [Example 1B, hydrochloride monohydrate] = 91
• CC[C@H](C)[C@H](N)C(=O)OCCOCn1cnc2c(=O)[nH]c(N)nc21 [Example 2, hydrochloride] = 80
• Nc1nc2c(ncn2COCCO)c(=O)[nH]1 [Acyclovir, 9-(2-Hydroxyethoxymethyl)guanine] = 99

====

Experiment: growth inhibition of uninfected mammalian cells (L cells)
Assay type: cell-based
Conditions: mouse, three days exposure, L cells (murine), read-out: Cell Toxicity (% of control at 100µm) L-Cells
Where a name gives a salt, the structure may show the parent alone.
observed property: activity at 72 h, 100 µM (%)

* Nc1nc2c(ncn2COCCO)c(=O)[nH]1 [Acyclovir, 9-(2-Hydroxyethoxymethyl)guanine] | 72
* CC(C)[C@H](N)C(=O)OCCOCn1cnc2c(=O)[nH]c(N)nc21 [Example 1B, hydrochloride monohydrate] | 85
* CC[C@H](C)[C@H](N)C(=O)OCCOCn1cnc2c(=O)[nH]c(N)nc21 [Example 2, hydrochloride] | 83
